Consider the following compounds and their measured growth inhibition readings.
TEST DESCRIPTION: NCI Yeast Anticancer Drug Screen. Data for the cln2 rad14 strain (AID 165);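 note: 0% = growth equal to vehicle treated cultures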
EXPERIMENTAL CONTEXT: S. cerevisiae cln2 rad14 strain, at 5.0 µM (retest, dose inferred, filed as 0.5), active compounds read high
Compounds without any hit were thinned out: in the full panel of roughly 79,000, 15% have a hit.
Response body: numeric value in %, unit text excluded.

Some compounds with recorded growth inhibition:
QUERY: What value of growth inhibition has been reported for the following compound? Cc1ccc2c(c1)C(=O)N(CC[P+](c1ccccc1)(c1ccccc1)c1ccccc1)C2=O
RESULT: 65

QUERY: What value of growth inhibition has been reported for the following compound? FC(F)(F)C(C1=NC(C(F)(F)F)(C(F)(F)F)N=C(N2CCOCC2)O1)C(F)(F)F
RESULT: 26

QUERY: What value of growth inhibition has been reported for the following compound? COCCCNC(=O)SC
RESULT: -2

New cases:
QUERY: What value of growth inhibition has been reported for the following compound? OC[P+](CO)(CO)C12CC3CC(CC(C3)C1)C2
RESULT: 18

QUERY: What value of growth inhibition has been reported for the following compound? O=C1NN(C2=NNC3(C(=O)N2)c2ccccc2-c2ccccc23)C(c2ccccc2)=N/C1=C/c1ccc(O)cc1
RESULT: -6

QUERY: What value of growth inhibition has been reported for the following compound? COC(=O)C12CCC(=O)C(C)=C1CCC(OC)(OC)C2 (configuration not stated)
RESULT: -2

QUERY: What value of growth inhibition has been reported for the following compound? CCCCCC/C=C\CCCCCCCCCC1=C(CN2CCN(C)CC2)C(=O)C=C(OC)C1=O
RESULT: 97

QUERY: What value of growth inhibition has been reported for the following compound? CCCCCCCCCCCCCCCCCCOP(=O)([O-])OC1CC[N+](C)(C)CC1
RESULT: 96

QUERY: What value of growth inhibition has been reported for the following compound? O=[N+]([O-])c1ccc2c(N=Nc3ccc4ccccc4c3O)c(O)cc(S(=O)(=O)O)c2c1
RESULT: -32

QUERY: What value of growth inhibition has been reported for the following compound? OCc1ccc(OCc2ccccc2)c(OCc2ccccc2)c1
RESULT: 51

QUERY: What value of growth inhibition has been reported for the following compound? N/N=C(\N)c1ccc2ccc3cccnc3c2n1
RESULT: -7

QUERY: What value of growth inhibition has been reported for the following compound? COc1ccc(C(C#N)=C2C=CC(=NOC(=O)Nc3ccccc3)C=C2)cc1
RESULT: 4

QUERY: What value of growth inhibition has been reported for the following compound? CN(C)c1ccc(C2C=C(c3ccccc3)Oc3ccccc32)cc1 (configuration not stated)
RESULT: 92

QUERY: What value of growth inhibition has been reported for the following compound? Cc1ccc(N)c(Cc2c(O)ccc3ccccc23)c1
RESULT: -7

* * *

TEST DESCRIPTION: NCI Yeast Anticancer Drug Screen. Data for the mec2-1 strain (AID 157)
EXPERIMENTAL CONTEXT: S. cerevisiae mec2-1 strain, at 50.0 µM (retest, dose inferred, filed as 5.0), active compounds read high
The panel holds about 79,000 compounds, 15% with a hit somewhere; the sample as a whole holds those more often.
Classification field: enter 1 for growth inhibition values not below 60%, 0 for values below it.

QUERY: Does the reported growth inhibition for C=CCOc1ccc2c(c1)CC=C1[C@@H]2CC[C@]2(C)C(=N\O)/C(=N/O)C[C@@H]12 fall at or above the 60% mark?
RESULT: 1

QUERY: Does the reported growth inhibition for COc1ccc(CC2C(=O)NC(C)C(=O)N(C)C3Cc4ccc(cc4)Oc4cc(ccc4O)CC(C(=O)NC(C)C(=O)NC(C)C(=O)N2C)N(C)C3=O)cc1 (stereo not given) fall at or above the 60% mark?
RESULT: 1

QUERY: Does the reported growth inhibition for O=C(CC(c1ccccc1Cl)C(C(=O)O)c1ccccc1)c1ccccc1 (stereo not given) fall at or above the 60% mark?
RESULT: 1

QUERY: Does the reported growth inhibition for CC(=O)ON=C1C=CC(=C(C#N)c2ccccc2)C=C1 fall at or above the 60% mark?
RESULT: 1

QUERY: Does the reported growth inhibition for CCC1(c2ccc(N3C(=O)c4ccccc4C3=O)cc2)CCC(=O)NC1=O (stereo not given) fall at or above the 60% mark?
RESULT: 0

New cases:
QUERY: Does the reported growth inhibition for O=C1C=CC2=Nc3ccccc3CCC2=C1 fall at or above the 60% mark?
RESULT: 1

QUERY: Does the reported growth inhibition for CCOC(=O)c1cnc(SCc2ccc(Cl)cc2Cl)nc1Cl fall at or above the 60% mark?
RESULT: 1

QUERY: Does the reported growth inhibition for O=C(CCN1CCCCC1)/C(=C\c1ccc(Cl)cc1)c1ccccc1 fall at or above the 60% mark?
RESULT: 1

QUERY: Does the reported growth inhibition for C[N+]12CC3C4CC(C3C1)C2C4 (stereo not given) fall at or above the 60% mark?
RESULT: 0

QUERY: Does the reported growth inhibition for CC1C(c2ccc3c(c2)OCO3)c2cc3c(cc2OC1N1CCOCC1)OCO3 (stereo not given) fall at or above the 60% mark?
RESULT: 0

QUERY: Does the reported growth inhibition for Cc1cc(C)c(C(=O)/C=C/C(=O)c2ccccc2)c(C)c1 fall at or above the 60% mark?
RESULT: 1

QUERY: Does the reported growth inhibition for O=C1CCC(=O)c2c1c(O)c1ccncc1c2O fall at or above the 60% mark?
RESULT: 1

QUERY: Does the reported growth inhibition for COC(=O)c1ncc(Cl)cc1Cl fall at or above the 60% mark?
RESULT: 0

QUERY: Does the reported growth inhibition for CC(C)/C(Cl)=N\OC(=O)Nc1ccc(S(N)(=O)=O)cc1 fall at or above the 60% mark?
RESULT: 0

QUERY: Does the reported growth inhibition for CC(C)c1ccc(S(=O)(=O)c2ccc([N+](=O)[O-])cc2[N+](=O)[O-])cc1 fall at or above the 60% mark?
RESULT: 1

QUERY: Does the reported growth inhibition for C=Cc1ccc(B2NCCO2)cc1 fall at or above the 60% mark?
RESULT: 1

QUERY: Does the reported growth inhibition for CCOc1ccc2c(c1)[n+]([O-])c(-c1ccc(Cl)cc1)c(N)[n+]2[O-] fall at or above the 60% mark?
RESULT: 1

QUERY: Does the reported growth inhibition for O=C(CC1(O)C(=O)Nc2c(Cl)cc(Cl)cc21)c1ccc(Cl)cc1 (stereo not given) fall at or above the 60% mark?
RESULT: 1

QUERY: Does the reported growth inhibition for Cn1cc(/C=C/[N+](=O)[O-])c2ccc(OCc3ccccc3)cc21 fall at or above the 60% mark?
RESULT: 0
